Sourced from patent US10308615B2

molecular target: human vanin-1 (Homo sapiens (Human), UniProt O95497); experiment: Human Vanin-1 Enzyme Assay 1; format: biochemical; settings: 25 pM human vanin-1, 50 uM pantetheine 7-amino-4-trifluoromethylcoumarin, 30 min preincubation, 60 min
Sequence (O95497 22-491): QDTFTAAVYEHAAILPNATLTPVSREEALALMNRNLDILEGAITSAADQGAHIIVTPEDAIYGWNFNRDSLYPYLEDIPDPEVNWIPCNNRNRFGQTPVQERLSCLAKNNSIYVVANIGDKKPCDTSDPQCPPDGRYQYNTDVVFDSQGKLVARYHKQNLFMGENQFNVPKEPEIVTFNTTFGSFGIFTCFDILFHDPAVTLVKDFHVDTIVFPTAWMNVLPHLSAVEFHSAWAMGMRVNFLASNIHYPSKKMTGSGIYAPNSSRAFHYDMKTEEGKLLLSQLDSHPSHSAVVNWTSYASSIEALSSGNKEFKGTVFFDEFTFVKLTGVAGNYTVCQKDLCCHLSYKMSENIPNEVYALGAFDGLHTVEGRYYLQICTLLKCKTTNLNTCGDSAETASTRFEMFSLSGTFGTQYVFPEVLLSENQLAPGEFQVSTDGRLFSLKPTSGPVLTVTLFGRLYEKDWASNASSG
assay-metric: pIC50
Lab note: report pIC50 as minus log10 of the concentration in molar units, number only.

// below: answered compounds
Request: Give the measured pIC50 of `O=C(c1cnc(NCc2cccnc2)nc1)c1cccc(C(F)(F)F)c1` .
Result: 8.72

Request: Item under review: `Cc1cccc(C(=O)c2cnc(NCc3ccccn3)nc2)c1` . Reported pIC50?
Result: 6.07

***
Request: I would be grateful if you could share the reported pIC50 for `O=C(c1cnc(NCc2cncnc2)nc1)c1ccc2c(c1)OCCO2` .
Result: 6.48

Request: Return reported pIC50; argument: `N#Cc1cccc(C(=O)c2cnc(NCc3cc[nH]c(=O)c3)nc2)c1`
Result: 6.73

Request: # get_value(readout='pIC50', item= `O=C(c1cnc(NCc2cccnc2)nc1)c1ccc(F)c(F)c1` )
Result: 7.03

Request: What does the record list as pIC50 for `Cn1ncc2ccc(C(=O)c3cnc(NCc4cncnc4)nc3)cc21` ?
Result: 6.30

Request: Would you mind telling me what pIC50 value was observed for `COc1ccc(CNc2ncc(C(=O)c3ccc(F)c(F)c3)cn2)cc1` ?
Result: 5.37

----------
molecular target: human vanin-1 (Homo sapiens (Human)); assay: Human Vanin-1 Enzyme Assay 2; format: biochemical; settings: 1 nM human vanin-1, 10 uM substrate, 45 min
assay-metric: pIC50
pIC50 here is simply -log10 of the concentration when that concentration is written in mol/L.

Please review the entries below; each comes with its answer.
Request: Need pIC50, item O=C(c1cnc(NCc2cccnc2)nc1)c1cccc(C(F)(F)F)c1 [Example 12]
Result: 8.54

Request: Which pIC50 is reported for this molecule? COc1cccc(C(=O)c2cnc(NC(C)c3cncnc3)nc2)c1 (stereo not shown) [Example 142]
Result: 7.46

Request: Given the entry O=C(c1cnc(NCc2cccnc2)nc1)c1ccccc1Cl [Example 102] , report its measured pIC50.
Result: 6.26

Request: Need pIC50 of N#Cc1cccc(C(=O)c2cnc(NC3(c4ccccc4)CC3)nc2)c1 [Example 65] , thanks.
Result: 7.66

Request: What value of measured pIC50 is listed for N#Cc1cccc(C(=O)c2cnc(NCc3cc[nH]c(=O)c3)nc2)c1 [Example 72] ?
Result: 7.06

Request: Need pIC50 of Cc1cccc(C(=O)c2cnc(NCc3ccc(C(N)=O)cc3)nc2)c1 [Example 23] , thanks.
Result: 7.01

Request: Given the molecule N#Cc1ccc(F)c(C(=O)c2cnc(NCc3cncnc3)nc2)c1 [Example 131] , what is its reported pIC50?
Result: 6.43

Request: What does the data say about its pIC50? Entry: O=C(c1cnc(NCc2cccnn2)nc1)c1cccc(C(F)(F)F)c1 [Example 67]
Result: 7.32

Request: Requested field: pIC50. Item: CS(=O)(=O)c1cccc(C(=O)c2cnc(NCc3cccnn3)nc2)c1 [Example 21]
Result: 7.20

Request: Reported pIC50 for N#Cc1cccc(C(=O)c2cnc(NCc3ccc(N)nc3)nc2)c1 [Example 6] : what is it?
Result: 7.61

Others:
Request: I have this molecule here, CC(C)(Nc1ncc(C(=O)c2cccc(C#N)c2)cn1)c1ccccc1 [Example 3] , and I need its recorded pIC50.
Result: 7.82

Request: Quick check: pIC50 of N#Cc1cccc(C(=O)c2cnc(NCc3cccnn3)nc2)c1 [Example 108] ?
Result: 6.96

Request: I am curious: what pIC50 value has been reported for O=C(c1cnc(NCc2cnccn2)nc1)c1cccc(C(F)(F)F)c1 [Example 11] ?
Result: 8.05
